experimentalSystem: T1, BCMA on cells (293T cells transfected with BCMA; H929, MM.1S and U266 cell lines expressing BCMA) (human, UniProt Q02223 1-184)
T1 construct: H929, MM.1S and U266 carry the native protein; also called B-cell Maturation Antigen; TNFRSF17
T1 sequence: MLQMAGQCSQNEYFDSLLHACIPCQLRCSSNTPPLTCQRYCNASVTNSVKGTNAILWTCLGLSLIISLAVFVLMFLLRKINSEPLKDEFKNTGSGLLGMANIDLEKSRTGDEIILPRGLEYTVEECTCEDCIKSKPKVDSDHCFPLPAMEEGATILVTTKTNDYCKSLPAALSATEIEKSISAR
assayComment: flow cytometry, 293T cells transfected with BCMA, above parental 293T background; also: test concentration or dose not given here
measure: Positive (%)
Numeric answer only, unit % assumed.

binder	unitLabel	measured
SCT-Aa04(h/h) (antibody, V domains shown, Full IgG format, chimeric: human IgG1 heavy chain constant region, human kappa light chain constant region) VH: EVKLLQSGGGLVQPGGSLKLSCAASGIDFSRYWMSWVRRAPGKGLEWIGEINPDSSTINYAPSLKDKFIISRDNAKNTLYLQMSKVRSEDTALYYCASFYYDYDRGAAMDYWGQGTSVTVSS VL: DIVMTQSQKFMSTSVGDRVSVTCKASQNVGTNVAWYQQKPGQSPKALIYSASYRYSGVPDRFTGSGSGTDFTLTISNVQSEDLAEYFCQQYNSYPYTFGGGTKLEIK	%	72
SCT-Aa08(h/h) (antibody, V domains shown, Full IgG format, chimeric: human IgG1 heavy chain constant region, human kappa light chain constant region) VH: QVQLQQSDAELVKPGASVKISCKVSGYTFIDHTIHWMKQRPEQGLEWIGYIYPRIDSSKCNEKFKDKATLTADKSSNTAYIQLNSLTSEDSAVYFCARWDYEGFDYWGQGTTLTVSS VL: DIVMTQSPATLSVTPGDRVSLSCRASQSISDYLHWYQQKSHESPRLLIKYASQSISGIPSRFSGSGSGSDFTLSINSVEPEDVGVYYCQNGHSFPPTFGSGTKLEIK	%	57.5

Shift focus to the following entry.
Documented Positive (%) of SCT-Aa15(h/h) (antibody, V domains shown, Full IgG format, chimeric: human IgG1 heavy chain constant region, human kappa light chain constant region) VH: QVQLQQSDAELVKPGPSVKISCKVSGSTFTDHTVHWMKQRPEQGLEWIGYVYPRDGSTRYNEKFKGKATLTADKSSSTAYMQLNSLTSEDSAVYFCARWDYEGFDYWGQGTTLTVSS VL: DIVMTQSPATLSVTPGDRVSLSCRASQNISDYLHWYQQKSHESPRLLIKYASQSISGIPSRFSGSGSGSDFTLSINSVEPEDVGVYYCQNGHSFPPTFGSGTKLKIK : 32
